Test system PRS (prolyl-tRNA synthetase) protein, PRS portion of EPRS (Homo sapiens (Human)), IC50 listed for each of the compounds.

compound: O[C@H]1CCCN[C@@H]1CCCn1cnc2ccc(F)c(F)c21 [Example 50]
IC50: 100 to 500 nM
//
compound: O[C@H]1CCCN[C@@H]1CCCn1cnc2cc(Cl)cc(-c3cnn(C4COC4)c3)c21 [Example 102]
IC50: 100 to 500 nM
//
compound: O[C@H]1CCCN[C@@H]1CCCn1cnc2cc(Cl)cc(-c3cccnc3)c21 [Example 86]
IC50: 100 to 500 nM
//
compound: O=C(O)c1cn(C/C=C/[C@H]2NCCC[C@@H]2O)c2cc(Cl)ccc12 [Example 206]
IC50: ≥ 500 nM
//
compound: O[C@H]1CCCN[C@@H]1CCCn1cnc2c(Cl)c(F)ccc21 [Example 62]
IC50: 100 to 500 nM
//
compound: Cc1c(Br)ccc2c1ncn2CCC[C@H]1NCCC[C@@H]1O [Example 45]
IC50: 100 to 500 nM

###

IC50, UniProt:P07814: measured values
reported_endpoint: IC50

smiles_record: COc1cc2ncn(CCC[C@H]3NCCC[C@@H]3O)c2cc1Cl
experimental_target: UniProt:P07814
value_observed: 100 to 500 nM
//
smiles_record: O[C@H]1CCCN[C@@H]1CCCn1cnc2cnc(Cl)nc21
experimental_target: UniProt:P07814
value_observed: ≥ 500 nM
//
smiles_record: O[C@H]1CCCN[C@@H]1CCCn1cnc2ccc(Cl)cc21
experimental_target: UniProt:P07814
value_observed: 100 to 500 nM
//
smiles_record: COc1ccc2c(ncn2CCC[C@H]2NCCC[C@@H]2O)c1Cl
experimental_target: UniProt:P07814
value_observed: 100 to 500 nM
//
smiles_record: O[C@H]1CCCN[C@@H]1CCCn1cnc2cc(Cl)c(Cl)cc21
experimental_target: UniProt:P07814
value_observed: 100 to 500 nM

###

Target: UniProt:P07814
Quick reference: IC50 of the listed items.

smiles_record: O[C@H]1CCCN[C@@H]1CCCn1cnc2cncc(Br)c21
IC50: ≥ 500 nM
//
smiles_record: O[C@H]1CCCN[C@@H]1CCCn1cnc2cc(Cl)cc(-c3cncc(F)c3)c21
IC50: 100 to 500 nM
//
smiles_record: O[C@H]1CCCN[C@@H]1/C=C/Cn1cnc2cc(Cl)c(Cl)cc21
IC50: 100 to 500 nM
//
smiles_record: O=C(O)c1cn(C/C=C/[C@H]2NCCC[C@@H]2O)c2cccc(Cl)c12
IC50: ≥ 500 nM
//
smiles_record: CNC(=O)c1cn(C/C=C/[C@H]2NCCC[C@@H]2O)c2ccc(Br)cc12
IC50: ≥ 500 nM
//
smiles_record: O[C@H]1CCCN[C@@H]1/C=C/Cn1cnc2c(Cl)c(Br)cnc21
IC50: ≤ 100 nM
//
smiles_record: O[C@H]1CCCN[C@@H]1CCCn1cnc2cc(Cl)cc(-c3cn[nH]c3)c21
IC50: ≥ 500 nM
//
smiles_record: Cc1cc2ncn(CCC[C@H]3NCCC[C@@H]3O)c2cc1C
IC50: ≥ 500 nM
//
smiles_record: O[C@H]1CCCN[C@@H]1CCCn1cnc2c(F)c(F)ccc21
IC50: 100 to 500 nM
//
smiles_record: O[C@H]1CCCN[C@@H]1CCCn1cnc2ccc(-c3cn[nH]c3)cc21
IC50: 100 to 500 nM
//
smiles_record: O=C(O)c1cn(C/C=C/[C@H]2NCCC[C@@H]2O)c2c(Cl)cccc12
IC50: ≥ 500 nM
//
smiles_record: Cc1noc(C)c1-c1cc(Cl)cc2ncn(CCC[C@H]3NCCC[C@@H]3O)c12
IC50: ≥ 500 nM
//
smiles_record: Cc1c(Cl)ccc2c1ncn2C/C(F)=C/[C@H]1NCCC[C@@H]1O
IC50: ≥ 500 nM
//
smiles_record: O[C@H]1CCCN[C@@H]1CCCn1cnc2c(Br)cccc21
IC50: 100 to 500 nM
//
smiles_record: Cn1c(=O)n(CCC[C@H]2NCCC[C@@H]2O)c2ccccc21
IC50: ≥ 500 nM
//
smiles_record: O[C@H]1CCCN[C@@H]1CCCn1cnc2c(N3CCCCC3)cccc21
IC50: ≥ 500 nM
//
smiles_record: O=[N+]([O-])c1ccc2c(ncn2CCC[C@H]2NCCC[C@@H]2O)c1Cl
IC50: 100 to 500 nM
//
smiles_record: O[C@H]1CCCN[C@@H]1CCCn1cnc2cccc(OC(F)(F)F)c21
IC50: ≥ 500 nM
//
smiles_record: O[C@H]1CCCN[C@@H]1CCCn1cnc2c(Cl)c(Cl)ccc21
IC50: ≤ 100 nM
//
smiles_record: O=C(O)c1cn(C/C=C/[C@H]2NCCC[C@@H]2O)c2ccccc12
IC50: ≥ 500 nM
//
smiles_record: O[C@H]1CCCN[C@@H]1CCCn1cnc2cc(-c3cccc(F)c3)ccc21
IC50: ≥ 500 nM
//
smiles_record: O[C@H]1CCCN[C@@H]1CCCn1cnc2nc(Br)ccc21
IC50: ≥ 500 nM
//
smiles_record: O[C@H]1CCCN[C@@H]1CCCn1cnc2cc(Br)ccc21
IC50: ≥ 500 nM
//
smiles_record: OCc1nc2cc(Cl)c(Cl)cc2n1C/C(F)=C/[C@H]1NCCC[C@@H]1O
IC50: ≥ 500 nM

###

Listed here: compounds with reported IC50 for UniProtKB P07814.

smiles_record: Cc1c(Br)ccc2c1ncn2C/C=C/[C@H]1NCCC[C@@H]1O
IC50: 100 to 500 nM
--
smiles_record: O[C@H]1CCCN[C@@H]1C#CCn1cnc2cc(Cl)c(Cl)cc21
IC50: ≥ 500 nM
--
smiles_record: Cc1ncc(-c2cc(Cl)cc3ncn(CCC[C@H]4NCCC[C@@H]4O)c23)s1
IC50: 100 to 500 nM
--
smiles_record: O=[N+]([O-])c1c(Br)ccc2c1ncn2CCC[C@H]1NCCC[C@@H]1O
IC50: ≥ 500 nM
--
smiles_record: O[C@H]1CCCN[C@@H]1CCCn1cnc2nccc(Cl)c21
IC50: 100 to 500 nM
--
smiles_record: Cc1ccc2c(ncn2CCC[C@H]2NCCC[C@@H]2O)n1
IC50: 100 to 500 nM
--
smiles_record: CCOC(=O)c1cc(-c2cc(Cl)cc3ncn(CCC[C@H]4NCCC[C@@H]4O)c23)cn1C
IC50: ≤ 100 nM
--
smiles_record: O[C@H]1CCCN[C@@H]1/C=C/Cn1cnc2c(Cl)c(Cl)cnc21
IC50: 100 to 500 nM
--
smiles_record: O[C@H]1CCCN[C@@H]1CCCn1cnc2cc(F)c(F)cc21
IC50: 100 to 500 nM
--
smiles_record: Cc1ccc2c(ncn2CCC[C@H]2NCCC[C@@H]2O)c1Cl
IC50: 100 to 500 nM
--
smiles_record: O[C@H]1CCCN[C@@H]1CCCn1cnc2cc(Cl)cc(Br)c21
IC50: ≤ 100 nM
--
smiles_record: O=C(O)c1cn(C/C=C/[C@H]2NCCC[C@@H]2O)c2ccc(Br)cc12
IC50: ≥ 500 nM
--
smiles_record: O[C@H]1CCCN[C@@H]1CCCn1cnc2cc(F)c(Cl)cc21
IC50: 100 to 500 nM
--
smiles_record: O[C@H]1CCCN[C@@H]1CCCn1cnc2cc(Cl)cc(-c3csc(C4CCOCC4)n3)c21
IC50: ≥ 500 nM
--
smiles_record: COC(=O)c1cn(C/C=C/[C@H]2NCCC[C@@H]2O)c2cc(Br)ccc12
IC50: 100 to 500 nM
--
smiles_record: O[C@H]1CCCN[C@@H]1CCCn1cnc2cc(Cl)ccc21
IC50: 100 to 500 nM
--
smiles_record: Cn1c(=O)[nH]c2c(ncn2CCC[C@H]2NCCC[C@@H]2O)c1=O
IC50: ≥ 500 nM
--
smiles_record: O[C@H]1CCCN[C@@H]1CCCn1cnc2nc(Cl)ncc21
IC50: ≥ 500 nM
--
smiles_record: Cc1nc2cc(Br)c(F)c(F)c2n1C/C=C/[C@H]1NCCC[C@@H]1O
IC50: ≥ 500 nM
--
smiles_record: Cn1cncc1-c1cc(Cl)cc2ncn(CCC[C@H]3NCCC[C@@H]3O)c12
IC50: ≥ 500 nM
--
smiles_record: CCN(CC)c1ncnc2c1ncn2CCC[C@H]1NCCC[C@@H]1O
IC50: ≥ 500 nM
--
smiles_record: O[C@H]1CCCN[C@@H]1CCCn1cnc2cccc(-c3cn[nH]c3)c21
IC50: 100 to 500 nM
--
smiles_record: O[C@H]1CCCN[C@@H]1CCCn1cnc2cc(Cl)cc(-c3cnn(CC4OCCO4)c3)c21
IC50: 100 to 500 nM
--
smiles_record: Cc1cc(Br)cc2c1ncn2CCC[C@H]1NCCC[C@@H]1O
IC50: ≤ 100 nM
--
smiles_record: O[C@H]1CCCN[C@@H]1CCCn1cnc2c(Cl)c(Br)cnc21
IC50: ≥ 500 nM
--
smiles_record: Cc1c(Br)cnc2c1ncn2C/C=C/[C@H]1NCCC[C@@H]1O
IC50: 100 to 500 nM

Values compiled from patent US10981917B2.
